testedTarget: T1, cynomolgus MCSP D3 (cynomolgus, UniProt Q6UVK1 1582-2224 (human entry), limits assumed)
T1 construct: also called Cyno MCSP; cynomolgus homologue
T1 chain: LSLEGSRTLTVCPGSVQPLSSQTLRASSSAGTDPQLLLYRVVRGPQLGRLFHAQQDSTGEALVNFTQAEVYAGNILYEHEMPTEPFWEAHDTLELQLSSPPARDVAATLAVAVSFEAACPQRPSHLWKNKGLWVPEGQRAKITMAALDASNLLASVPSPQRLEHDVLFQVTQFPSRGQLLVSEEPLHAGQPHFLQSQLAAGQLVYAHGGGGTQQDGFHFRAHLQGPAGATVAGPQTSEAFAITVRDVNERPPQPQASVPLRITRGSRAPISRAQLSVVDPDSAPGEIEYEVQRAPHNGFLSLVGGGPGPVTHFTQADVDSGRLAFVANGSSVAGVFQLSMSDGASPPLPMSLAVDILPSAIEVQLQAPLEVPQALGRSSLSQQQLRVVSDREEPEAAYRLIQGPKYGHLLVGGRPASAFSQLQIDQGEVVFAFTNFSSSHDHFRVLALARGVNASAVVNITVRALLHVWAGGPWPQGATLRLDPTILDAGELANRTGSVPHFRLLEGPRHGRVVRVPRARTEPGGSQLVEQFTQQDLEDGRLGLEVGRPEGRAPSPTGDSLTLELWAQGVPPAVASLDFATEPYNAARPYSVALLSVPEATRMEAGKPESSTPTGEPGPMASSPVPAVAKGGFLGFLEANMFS
procedureDetails: SPR ProteOn XPR36, 25 C; IgG captured via anti-human F(ab')2, MCSP D3 as analyte
measuredQuantity: Kd (nM)
Answer in nM, number only, no unit symbol.

Task: Quick one: Kd for M4-3(C1)/ML2(C5) IgG (antibody, V domains shown, Human IgG1) VH: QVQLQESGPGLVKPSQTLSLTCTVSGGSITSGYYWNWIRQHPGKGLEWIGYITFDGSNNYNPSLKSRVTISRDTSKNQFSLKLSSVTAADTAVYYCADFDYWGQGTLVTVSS VL: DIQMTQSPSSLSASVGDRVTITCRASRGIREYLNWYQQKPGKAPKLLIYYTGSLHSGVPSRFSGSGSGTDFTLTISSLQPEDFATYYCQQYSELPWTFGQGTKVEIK ?
Result: 0.3

Task: Could you share which Kd value was measured for Parental M4-3/ML2 IgG (antibody, V domains shown, Human IgG1 format, from mammalian production; also called M4-3 ML2 (parental); anti-MCSP antibody M4-3/ML2) VH: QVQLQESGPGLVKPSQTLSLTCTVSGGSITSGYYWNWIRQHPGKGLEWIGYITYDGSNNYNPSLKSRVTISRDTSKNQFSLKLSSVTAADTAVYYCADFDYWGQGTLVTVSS VL: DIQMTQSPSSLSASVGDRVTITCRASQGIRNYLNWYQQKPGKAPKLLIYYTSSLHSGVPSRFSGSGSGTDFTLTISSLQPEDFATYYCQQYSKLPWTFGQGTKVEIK ?
Result: 2

Task: Can you share its Kd? I mean this binder: M4-3(A7)/ML2(G3) IgG (antibody, V domains shown, Human IgG1) VH: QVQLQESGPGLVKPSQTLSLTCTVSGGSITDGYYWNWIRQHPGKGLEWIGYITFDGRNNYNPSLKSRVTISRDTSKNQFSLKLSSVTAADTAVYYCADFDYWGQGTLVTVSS VL: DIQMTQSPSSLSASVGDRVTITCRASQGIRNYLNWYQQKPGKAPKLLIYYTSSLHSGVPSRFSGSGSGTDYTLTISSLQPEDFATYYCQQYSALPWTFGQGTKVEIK
Result: 0.2
